- TEST_TARGET: Sodium-dependent serotonin transporter (Rattus norvegicus)
- Sequence (P31652 whole entry): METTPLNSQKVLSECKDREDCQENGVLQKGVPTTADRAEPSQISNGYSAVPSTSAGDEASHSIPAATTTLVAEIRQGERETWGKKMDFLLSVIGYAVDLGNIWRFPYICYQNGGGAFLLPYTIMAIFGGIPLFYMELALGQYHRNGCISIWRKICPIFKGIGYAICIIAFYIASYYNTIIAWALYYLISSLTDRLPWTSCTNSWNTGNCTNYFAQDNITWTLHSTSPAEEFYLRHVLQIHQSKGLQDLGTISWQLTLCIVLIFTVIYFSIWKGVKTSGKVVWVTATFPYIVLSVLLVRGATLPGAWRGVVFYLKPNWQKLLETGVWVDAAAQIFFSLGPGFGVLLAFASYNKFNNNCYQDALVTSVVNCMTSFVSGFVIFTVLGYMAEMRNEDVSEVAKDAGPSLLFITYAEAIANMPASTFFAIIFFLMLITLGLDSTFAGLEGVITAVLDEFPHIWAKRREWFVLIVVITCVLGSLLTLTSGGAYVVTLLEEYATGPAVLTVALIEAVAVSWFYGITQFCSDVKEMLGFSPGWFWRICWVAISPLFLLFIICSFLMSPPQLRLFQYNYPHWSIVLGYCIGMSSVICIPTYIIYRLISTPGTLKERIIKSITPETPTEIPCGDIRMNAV
READOUT_NAME: pIC50
Remember the convention: pIC50 equals -log10 of concentration in molar.

Exercise: Fill in: pIC50 on Sodium-dependent serotonin transporter (Rattus norvegicus), entry Fc1ccc(CN2CCC(CCNC(c3ccccc3)c3ccccc3)CC2)cc1
Solution: 6.23

---

- TEST_TARGET: Sodium-dependent dopamine transporter (Rattus norvegicus)
- Sequence (P23977 whole entry): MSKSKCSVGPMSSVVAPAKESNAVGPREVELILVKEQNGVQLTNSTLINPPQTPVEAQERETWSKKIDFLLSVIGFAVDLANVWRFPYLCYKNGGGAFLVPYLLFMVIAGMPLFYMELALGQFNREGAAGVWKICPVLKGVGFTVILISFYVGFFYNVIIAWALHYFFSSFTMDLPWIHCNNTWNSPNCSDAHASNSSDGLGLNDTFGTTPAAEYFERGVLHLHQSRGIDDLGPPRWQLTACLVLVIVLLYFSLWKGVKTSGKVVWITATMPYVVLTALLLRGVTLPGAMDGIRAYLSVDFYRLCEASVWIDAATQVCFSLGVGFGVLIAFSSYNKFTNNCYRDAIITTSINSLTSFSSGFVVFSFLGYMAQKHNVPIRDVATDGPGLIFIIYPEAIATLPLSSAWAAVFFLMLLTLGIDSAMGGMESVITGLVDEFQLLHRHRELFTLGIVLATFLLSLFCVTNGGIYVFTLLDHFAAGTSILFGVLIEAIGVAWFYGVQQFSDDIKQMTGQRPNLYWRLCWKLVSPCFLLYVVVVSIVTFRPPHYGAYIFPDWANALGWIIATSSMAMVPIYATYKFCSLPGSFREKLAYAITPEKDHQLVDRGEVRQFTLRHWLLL
READOUT_NAME: IC50 (nM)
Provide the reading as a plain figure in nM.

Exercise: Return IC50 (reported value) for this compound: Fc1ccc(CN2CCC(CCNC(c3ccccc3)c3ccccc3)CC2)cc1
Solution: 9.4
